Value source: patent US10633375B2

Record type: IC50 measurement. Applies to: Coagulation Factor XIa protease (Homo sapiens (Human), UniProt P03951)
One number for each entry, in µM.

compound="COCC[C@H](C(=O)Nc1ccc2[nH]c(C(=O)O)cc2c1)n1cc(OC)c(-c2cc(Cl)ccc2C(C)=O)cc1=O [Example 3]" readout_kind=IC50 measured=1.74
compound="COc1cn(C(Cc2cnn(C)c2)C(=O)Nc2ccc(C(=O)O)cc2)c(=O)cc1-c1cc(Cl)ccc1C(C)=O (stereo not shown) [Example 103]" readout_kind=IC50 measured=0.07
compound="COCC[C@@H](C(=O)Nc1ccc2[nH]c(C(=O)O)cc2c1)n1cc(OC)c(-c2cc(Cl)ccc2C(C)=O)cc1=O [Example 2]" readout_kind=IC50 measured=0.019

Lab request: please report IC50 under test system Coagulation Factor XIa protease (Homo sapiens (Human), UniProt P03951) for CCC(=O)c1ccc(Cl)cc1-c1cc(=O)n(C(Cc2ccccc2)C(=O)Nc2ccc(C(=O)O)cc2)cc1OC (stereo not shown) [Example 8]
0.017
